MEASUREMENT NOTES: HIF pathway transcriptional activators, primary screen, cell-based, U2OS HRE-luciferase, luminescence (AID 1910)
CONDITION INFO: U2OS HRE-luciferase reporter, stronger effect = higher value, screened at 7.5 µM (by protocol), normalized: DMSO 0%, desferrioxamine 100%
Hit rate of the full screen: of about 300,000 compounds, about 950 (0.32%) were called active. For the sample, actives were picked, then their nearest neighbours and some compounds at random.

# MOL SMILES, MEASUREMENT UNIT, activation
data = [
    ("CCOC(=O)c1cc(C(C)C)sc1NC(=O)COC(=O)c1nccnc1N", "%", -0.0851),
    ("O=C(COc1coc(CN2CCN(c3ccccc3)CC2)cc1=O)N1CCc2ccccc21", "%", 0.142),
    ("COc1ccc(NC(=O)CCCC(=O)c2ccccc2)cc1", "%", 0.37),
    ("Cc1ccc(C(=O)O)cc1NC(=O)c1ccc(Cn2nc(C)c(Cl)c2C)o1", "%", -0.0752),
    ("Cc1c(Cl)c([N+](=O)[O-])nn1CCCC(=O)Nc1cc(Cl)ccc1Cl", "%", -0.466),
    ("CN(Cc1cnccn1)C(=O)c1cc(COc2cccc(C(F)(F)F)c2)on1", "%", -2.19),
    ("Cc1ccc(OCc2cc(C(=O)N(C)CCc3ccccc3)no2)cc1C", "%", 4.07),
    ("NC(=O)c1ccsc1NC(=O)COC(=O)Cc1n[nH]c(=O)c2ccccc12", "%", 0.145),
    ("CN(Cc1cccnc1)C(=O)c1cc(COc2ccc3ncccc3c2)on1", "%", 39.7),
    ("O=C(Nc1cccc(F)c1)c1coc(=O)c(Br)c1", "%", 0.54),
    ("COc1cc(N)c(Cl)cc1C(=O)OCC(=O)c1ccc2c(c1)NC(=O)CO2", "%", 0.0757),
]
